- Test system: MDA-MB-231
- PROCEDURE_SUMMARY: Antitumor activity against human MDA-MB-231 cells
- Format: functional, cell-based
Non-standard residues stand in square brackets, D forms with d. Residues, ends and D or L forms follow the SMILES beside them. Groups on a side chain read outwards from the residue. *: point of attachment. Phe(4-Cl) = N[C@@H](Cc1ccc(Cl)cc1)C(=O)O; Phe(4-F) = N[C@@H](Cc1ccc(F)cc1)C(=O)O; NEt2 = CCN(CC)*
Entries annotated with measured IC50
OBSERVATION_TYPE: IC50

>>> result("CCN(CC)C(=O)[C@H](Cc1ccc(Cl)cc1)NC(=O)[C@H](CC(C)C)NC(=O)[C@@H](NC(=O)[C@@H](N)COC(=O)[C@H](CC(C)C)NC(C)=O)C(C)C (H-S([Leu-Ac])VL[Phe(4-Cl)]-NEt2)")
"> 50 µg/mL"
>>> result("CCN(CC)C(=O)[C@H](Cc1ccc(F)cc1)NC(=O)[C@H](CC(C)C)NC(=O)[C@@H](NC(=O)[C@@H](N)COC(=O)[C@H](CC(C)C)NC(C)=O)C(C)C (H-S([Leu-Ac])VL[Phe(4-F)]-NEt2)")
"> 50 µg/mL"
>>> result("CCN(CC)C(=O)[C@H](Cc1ccc(F)cc1)NC(=O)[C@H](CC(C)C)NC(=O)[C@@H](NC(=O)[C@@H](N)COC(=O)[C@@H]1CCCN1C(C)=O)C(C)C (H-S([Pro-Ac])VL[Phe(4-F)]-NEt2)")
"> 50 µg/mL"
>>> result("CCN(CC)C(=O)[C@H](Cc1ccccc1)NC(=O)[C@H](CC(C)C)NC(=O)[C@@H](NC(=O)[C@@H](N)COC(=O)[C@@H]1CCCN1C(C)=O)C(C)C (H-S([Pro-Ac])VLF-NEt2)")
"> 50 µg/mL"
>>> result("CCN(CC)C(=O)[C@H](Cc1ccc(OC)cc1)NC(=O)[C@H](CC(C)C)NC(=O)[C@@H](NC(=O)[C@@H](N)COC(=O)[C@H](CC(C)C)NC(C)=O)C(C)C (H-S([Leu-Ac])VLY(Me)-NEt2)")
"> 50 µg/mL"

###

- STUDY_TARGET: Tyrosine-protein phosphatase non-receptor type 11 (Homo sapiens)
- PROCEDURE_SUMMARY: Inhibition of SHP2 (unknown origin) at 5 uM
Non-standard residues stand in square brackets, D forms with d. Residues, ends and D or L forms follow the SMILES beside them. Groups on a side chain read outwards from the residue. *: point of attachment. Phe(4-Br) = N[C@@H](Cc1ccc(Br)cc1)C(=O)O; Phe(4-F) = N[C@@H](Cc1ccc(F)cc1)C(=O)O; 2Nal = N[C@@H](Cc1ccc2ccccc2c1)C(=O)O; NEt2 = CCN(CC)*
OBSERVATION_TYPE: inhibition (%)

>>> quantitative_result("CCN(CC)C(=O)[C@H](Cc1ccc2ccccc2c1)NC(=O)[C@H](CC(C)C)NC(=O)[C@@H](NC(=O)[C@@H](N)COC(=O)[C@@H]1CCCN1C(C)=O)C(C)C (H-S([Pro-Ac])VL[2Nal]-NEt2)")
33
>>> quantitative_result("CCN(CC)C(=O)[C@H](Cc1ccccc1)NC(=O)[C@H](CC(C)C)NC(=O)[C@@H](NC(=O)[C@@H](N)COC(=O)[C@H](CC(C)C)NC(C)=O)C(C)C (H-S([Leu-Ac])VLF-NEt2)")
12
>>> quantitative_result("CCN(CC)C(=O)[C@H](Cc1ccc(F)cc1)NC(=O)[C@H](CC(C)C)NC(=O)[C@@H](NC(=O)[C@@H](N)COC(=O)[C@@H]1CCCN1C(C)=O)C(C)C (H-S([Pro-Ac])VL[Phe(4-F)]-NEt2)")
18
>>> quantitative_result("CCN(CC)C(=O)[C@H](Cc1ccc(Br)cc1)NC(=O)[C@H](CC(C)C)NC(=O)[C@@H](NC(=O)[C@@H](N)COC(=O)[C@H](CC(C)C)NC(C)=O)C(C)C (H-S([Leu-Ac])VL[Phe(4-Br)]-NEt2)")
21

###

Data export: pIC50 values recorded with Cathepsin B (Homo sapiens).
pIC50: −log10 of the molar value. Non-standard residues stand in square brackets, D forms with d. Residues, ends and D or L forms follow the SMILES beside them. Groups on a side chain read outwards from the residue. *: point of attachment. Phe(4-Br) = N[C@@H](Cc1ccc(Br)cc1)C(=O)O; Phe(4-Cl) = N[C@@H](Cc1ccc(Cl)cc1)C(=O)O; Phe(4-F) = N[C@@H](Cc1ccc(F)cc1)C(=O)O; NEt2 = CCN(CC)*
OBSERVATION_TYPE: pIC50

>>> result("CCN(CC)C(=O)[C@H](Cc1ccc(Br)cc1)NC(=O)[C@H](CC(C)C)NC(=O)[C@@H](NC(=O)[C@@H](N)COC(=O)[C@@H]1CCCN1C(C)=O)C(C)C (H-S([Pro-Ac])VL[Phe(4-Br)]-NEt2)")
"< 3.87"
>>> result("CCN(CC)C(=O)[C@H](Cc1ccc(Cl)cc1)NC(=O)[C@H](CC(C)C)NC(=O)[C@@H](NC(=O)[C@@H](N)COC(=O)[C@@H]1CCCN1C(C)=O)C(C)C (H-S([Pro-Ac])VL[Phe(4-Cl)]-NEt2)")
"< 3.84"
>>> result("CCN(CC)C(=O)[C@H](Cc1ccc(OC)cc1)NC(=O)[C@H](CC(C)C)NC(=O)[C@@H](NC(=O)[C@@H](N)COC(=O)[C@@H]1CCCN1C(C)=O)C(C)C (H-S([Pro-Ac])VLY(Me)-NEt2)")
"< 3.84"
>>> result("CCN(CC)C(=O)[C@H](Cc1ccc(F)cc1)NC(=O)[C@H](CC(C)C)NC(=O)[C@@H](NC(=O)[C@@H](N)COC(=O)[C@@H]1CCCN1C(C)=O)C(C)C (H-S([Pro-Ac])VL[Phe(4-F)]-NEt2)")
"< 3.83"
>>> result("CCN(CC)C(=O)[C@H](Cc1ccc(Br)cc1)NC(=O)[C@H](CC(C)C)NC(=O)[C@@H](NC(=O)[C@@H](N)COC(=O)[C@H](CC(C)C)NC(C)=O)C(C)C (H-S([Leu-Ac])VL[Phe(4-Br)]-NEt2)")
"< 3.88"

###

- STUDY_TARGET: Tyrosine-protein phosphatase non-receptor type 11 (Homo sapiens)
- PROCEDURE_SUMMARY: Inhibition of SHP2 (unknown origin) at 50 uM
Non-standard residues stand in square brackets, D forms with d. Residues, ends and D or L forms follow the SMILES beside them. Groups on a side chain read outwards from the residue. *: point of attachment. Phe(4-Br) = N[C@@H](Cc1ccc(Br)cc1)C(=O)O; Phe(4-Cl) = N[C@@H](Cc1ccc(Cl)cc1)C(=O)O; Phe(4-F) = N[C@@H](Cc1ccc(F)cc1)C(=O)O; 2Nal = N[C@@H](Cc1ccc2ccccc2c1)C(=O)O; NEt2 = CCN(CC)*
OBSERVATION_TYPE: inhibition (%)

>>> quantitative_result("CCN(CC)C(=O)[C@H](Cc1ccc(F)cc1)NC(=O)[C@H](CC(C)C)NC(=O)[C@@H](NC(=O)[C@@H](N)COC(=O)[C@H](CC(C)C)NC(C)=O)C(C)C (H-S([Leu-Ac])VL[Phe(4-F)]-NEt2)")
55
>>> quantitative_result("CCN(CC)C(=O)[C@H](Cc1ccccc1)NC(=O)[C@H](CC(C)C)NC(=O)[C@@H](NC(=O)[C@@H](N)COC(=O)[C@H](CC(C)C)NC(C)=O)C(C)C (H-S([Leu-Ac])VLF-NEt2)")
83
>>> quantitative_result("CCN(CC)C(=O)[C@H](Cc1ccccc1)NC(=O)[C@H](CC(C)C)NC(=O)[C@@H](NC(=O)[C@@H](N)COC(=O)[C@@H]1CCCN1C(C)=O)C(C)C (H-S([Pro-Ac])VLF-NEt2)")
54
>>> quantitative_result("CCN(CC)C(=O)[C@H](Cc1ccc2ccccc2c1)NC(=O)[C@H](CC(C)C)NC(=O)[C@@H](NC(=O)[C@@H](N)COC(=O)[C@H](CC(C)C)NC(C)=O)C(C)C (H-S([Leu-Ac])VL[2Nal]-NEt2)")
46
>>> quantitative_result("CCN(CC)C(=O)[C@H](Cc1ccc(F)cc1)NC(=O)[C@H](CC(C)C)NC(=O)[C@@H](NC(=O)[C@@H](N)COC(=O)[C@@H]1CCCN1C(C)=O)C(C)C (H-S([Pro-Ac])VL[Phe(4-F)]-NEt2)")
81
>>> quantitative_result("CCN(CC)C(=O)[C@H](Cc1ccc(Cl)cc1)NC(=O)[C@H](CC(C)C)NC(=O)[C@@H](NC(=O)[C@@H](N)COC(=O)[C@H](CC(C)C)NC(C)=O)C(C)C (H-S([Leu-Ac])VL[Phe(4-Cl)]-NEt2)")
49
>>> quantitative_result("CCN(CC)C(=O)[C@H](Cc1ccc(Br)cc1)NC(=O)[C@H](CC(C)C)NC(=O)[C@@H](NC(=O)[C@@H](N)COC(=O)[C@@H]1CCCN1C(C)=O)C(C)C (H-S([Pro-Ac])VL[Phe(4-Br)]-NEt2)")
51
>>> quantitative_result("CCN(CC)C(=O)[C@H](Cc1ccc2ccccc2c1)NC(=O)[C@H](CC(C)C)NC(=O)[C@@H](NC(=O)[C@@H](N)COC(=O)[C@@H]1CCCN1C(C)=O)C(C)C (H-S([Pro-Ac])VL[2Nal]-NEt2)")
76
>>> quantitative_result("CCN(CC)C(=O)[C@H](Cc1ccc(Cl)cc1)NC(=O)[C@H](CC(C)C)NC(=O)[C@@H](NC(=O)[C@@H](N)COC(=O)[C@@H]1CCCN1C(C)=O)C(C)C (H-S([Pro-Ac])VL[Phe(4-Cl)]-NEt2)")
46
>>> quantitative_result("CCN(CC)C(=O)[C@H](Cc1ccc(Br)cc1)NC(=O)[C@H](CC(C)C)NC(=O)[C@@H](NC(=O)[C@@H](N)COC(=O)[C@H](CC(C)C)NC(C)=O)C(C)C (H-S([Leu-Ac])VL[Phe(4-Br)]-NEt2)")
78
>>> quantitative_result("CCN(CC)C(=O)[C@H](Cc1ccc(OC)cc1)NC(=O)[C@H](CC(C)C)NC(=O)[C@@H](NC(=O)[C@@H](N)COC(=O)[C@H](CC(C)C)NC(C)=O)C(C)C (H-S([Leu-Ac])VLY(Me)-NEt2)")
52
>>> quantitative_result("CCN(CC)C(=O)[C@H](Cc1ccc(OC)cc1)NC(=O)[C@H](CC(C)C)NC(=O)[C@@H](NC(=O)[C@@H](N)COC(=O)[C@@H]1CCCN1C(C)=O)C(C)C (H-S([Pro-Ac])VLY(Me)-NEt2)")
53

From: ChEMBL document CHEMBL3400108
